assay: Concentration in brain tissue was measured at 2 hrs in mice following po administration of 32 mg/kg; type: ADME, organism-based; set-up: dose 32 mg/kg, route oral; details: mouse
value_kind: concentration at 2 h (ng/g)
Give the number; ng/g is assumed, so skip it.

Provide only the value of recorded concentration at 2 h for Cc1cccc2c(=O)[nH]c(CCCN3CC=C(c4ccccc4)CC3)nc12 730

Provide only the value of recorded concentration at 2 h for O=c1[nH]c(CCCN2CC=C(c3ccc(F)cc3)CC2)nc2ccccc12 1160

Provide only the value of recorded concentration at 2 h for O=c1[nH]c(CCCN2CC=C(c3ccccc3)CC2)nc2ccccc12 370

Provide only the value of recorded concentration at 2 h for Cc1ccc(C2=CCN(CCCc3nc(O)c4ccccc4n3)CC2)cc1 2340

Provide only the value of recorded concentration at 2 h for O=c1[nH]c(CCCN2CC=C(c3ccc(F)cc3)CC2)nc2c(Cl)cccc12 2100

Provide only the value of recorded concentration at 2 h for N#Cc1ccc(C2=CCN(CCCc3nc(O)c4ccccc4n3)CC2)cc1 540

Provide only the value of recorded concentration at 2 h for Oc1nc(CCCN2CC=C(c3ccccc3)CC2)nc2cc(Cl)ccc12 2660

Provide only the value of recorded concentration at 2 h for Oc1nc(CCCN2CC=C(c3ccccc3)CC2)nc2ccc(Cl)cc12 14200

Further cases:
Provide only the value of recorded concentration at 2 h for O=c1[nH]c(CCCN2CCC(c3ccccc3)CC2)nc2ccccc12 100

Provide only the value of recorded concentration at 2 h for O=c1[nH]c(CCCN2CC=C(c3ccccc3)CC2)nc2cccc(Cl)c12 2820

Provide only the value of recorded concentration at 2 h for O=c1[nH]c(CCCN2CC=C(c3ccc(Cl)cc3)CC2)nc2ccccc12 9410

All values here come from ChEMBL document CHEMBL1137205.
